Values were extracted from PubChem BioAssay (Tox21).

Molecular target: Nuclear receptor subfamily 1 group I member 2 (Homo sapiens)
Experiment: Human pregnane X receptor (PXR) small molecule agonists, qHTS assay (AID 1346982); further: nearly all actives have a fitted effect of over 35% in size
Details: PXR-Luc HepG2, CYP3A4 luciferase reporter, 24 h; series mostly up to 92.4 µM
Results filed as inconclusive are left out. Calls of active or inactive are those of the source. The call rests on the fitted dose curve; in most records, active means well fitted activation curve with a large enough effect in the repeat runs; inconclusive means weak or mixed curves; inactive means no such curve, though single readings can be large or run the other way.
property-name: outcome

Looking for the measured outcome of CC(C)=CCC/C(C)=C/CC/C(C)=C/CCC(=O)OC/C=C(\C)CCC=C(C)C , can you help? inactive

I'd like to know its outcome. The compound in question is C=C1CCC2CC1C2(C)C (stereo not drawn) inactive

I would be grateful if you could share the reported outcome for Cc1cscn1 . inactive

* * *

Assay: qHTS assay to identify small molecule agonists of the estrogen related receptor (ERR) signaling pathway from Tox21 library (AID 1224849); further: nearly all actives have a fitted effect of over 15% in size
Settings: ERR reporter cell line, ONE-Glo luciferase, 18 h; at 92.4 µM (top of the series) unless noted
Active and inactive are the calls of the source. The call rests on the fitted dose curve.
Returns: one label drawn from t (active), f (inactive)

Known results for molecules:
# outcome recorded in this test, key = O=c1cc(-c2ccccc2)oc2ccc3ccccc3c12 t

Name the outcome recorded for O=C=Nc1cccc(C(F)(F)F)c1 in the assay. f

Answer briefly: the call reported for COc1ccccc1Oc1c(NS(=O)(=O)c2ccc(C(C)(C)C)cc2)nc(-c2ncccn2)nc1OCCO in this assay. f

Continuing:
# fetch the recorded call for CN(C)CCC=C1c2ccccc2C=Cc2ccccc21 here f

Please state the recorded outcome for this molecule: O=C1c2ccccc2C(=O)C1(O)O f

Tell me the recorded outcome of this test for COC(=O)[C@H]1[C@H]2C[C@@H]3c4[nH]c5cc(OC)ccc5c4CCN3C[C@H]2C[C@@H](OC(=O)/C=C/c2ccc(O)c(OC)c2)[C@@H]1OC . f

* * *

Molecular target: Nuclear receptor subfamily 1 group I member 2 (Homo sapiens) (UniProt O75469)
Sequence (O75469 whole entry, looked up): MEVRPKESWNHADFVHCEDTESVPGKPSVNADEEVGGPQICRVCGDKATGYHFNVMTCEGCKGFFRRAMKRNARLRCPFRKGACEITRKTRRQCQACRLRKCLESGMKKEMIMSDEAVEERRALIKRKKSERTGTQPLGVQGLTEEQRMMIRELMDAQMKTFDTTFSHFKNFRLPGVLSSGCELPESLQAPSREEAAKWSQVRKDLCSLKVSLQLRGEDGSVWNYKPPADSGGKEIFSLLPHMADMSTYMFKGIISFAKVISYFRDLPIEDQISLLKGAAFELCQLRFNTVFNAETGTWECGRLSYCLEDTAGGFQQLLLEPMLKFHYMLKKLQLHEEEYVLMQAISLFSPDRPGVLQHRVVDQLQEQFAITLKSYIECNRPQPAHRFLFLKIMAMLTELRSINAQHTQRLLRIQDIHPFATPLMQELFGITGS
Experiment: Human pregnane X receptor (PXR) small molecule agonists, qHTS assay (AID 1346982); further: nearly all actives have a fitted effect of over 35% in size
Settings: PXR-Luc HepG2, CYP3A4 luciferase reporter, 24 h; series mostly up to 92.4 µM
Records with an inconclusive call do not appear. Active and inactive are the calls of the source. The call rests on the fitted dose curve; in most records, active means well fitted activation curve with a large enough effect in the repeat runs; inconclusive means weak or mixed curves; inactive means no such curve, though single readings can be large or run the other way.
Answer with one of the outcomes YES for active, NO for inactive

Sample answers from the record:
Any idea what this test logged for O=C(/C=C/c1ccccc1)OCCc1ccccc1 ? NO

Assay result, entry CCCCCCNC(=O)n1cc(F)c(=O)[nH]c1=O — outcome? YES

Name the outcome recorded for CC1=C(CC=O)C(C)(C)CCC1 in the assay. YES

***
Hi, sorry to bother you, what did the test record for Brc1cc(Br)c(Oc2cc(Br)c(Br)cc2Br)cc1Br ? YES

Check the results log: what was the call for CCC(=O)OC ? NO

// outcome(item) with item = CC(=O)[C@H]1[C@H](C#N)C[C@H]2[C@@H]3CC=C4C[C@@H](O)CC[C@]4(C)[C@H]3CC[C@@]21C YES

Tell me the assay call for O=C(O)CCCCCCCCCCCBr please. NO

* * *

Test: qHTS assay to identify small molecule antagonists of the peroxisome proliferator-activated receptor gamma (PPARg) signaling pathway - cell viability counter screen (AID 743194); further: nearly all actives have a fitted effect of over 55% in size
Settings: PPARg-bla HEK293H viability, CellTiter-Glo luminescence, 17 h, co-treated with 50 nM rosiglitazone; series mostly up to 62.6 µM
Records with an inconclusive call do not appear. The source made the active and inactive calls. Calls follow the shape of the dose curve; as a rule, active = well fitted cell-killing curve with a large enough effect in the repeat runs; inconclusive = weak or mixed curves, or effect the other way; inactive = no such curve, though single readings can be large or run the other way.
Choose one outcome from this list and give only that: true (1) = active, false (0) = inactive

Example cases with answers are listed next.
Please share the test call associated with O=C(CCCN1CC=C(n2c(=O)[nH]c3ccccc32)CC1)c1ccc(F)cc1 . false (0)

What did this assay record as the result for O=C1NCCN1CCO ? false (0)

Short answer needed: outcome of this test for CCC(=O)OC ? false (0)

Hi, do you know how Cc1cc(C)cc(N)c1 came out in this test? false (0)

Which outcome was entered for the compound CC(C)=CCC/C(C)=C/CC/C(C)=C/CCC(=O)OC/C=C(\C)CCC=C(C)C in this test? false (0)

Assay result, entry CCCC(=O)C(=O)O — outcome? false (0)

Answer briefly: the call reported for C[C@@H]1CN(CCCn2c3ccccc3c3ccccc32)C[C@H](C)N1 in this assay. true (1)

Could you check what this test reported for COc1cc(Nc2c(C#N)cnc3cc(OCCCN4CCN(C)CC4)c(OC)cc23)c(Cl)cc1Cl ? true (1)

Switching to the query record.
Check the results log: what was the call for Cc1ccccc1N=C(N)Nc1ccccc1C ? false (0)

* * *

Experiment: Caspase-3/7 induction in HepG2 cells by small molecules, qHTS assay (AID 1346978); further: nearly all actives have a fitted effect of over 15% in size
Details: HepG2 caspase-3/7 activation, Caspase-Glo luminescence, 17 h; series mostly up to 92.4 µM
Inconclusive results are not listed. Calls of active or inactive are those of the source. Calls follow the shape of the dose curve; as a rule, active = well fitted activation curve with a large enough effect in the repeat runs; inconclusive = weak or mixed curves; inactive = flat fitted curve, though single readings scatter.
Respond using exactly one of the listed classes: 1 (yes) (active), 0 (no) (inactive)

Completed entries (count: 5):
What outcome does the record of this test show for CCCCCCNC(=O)n1cc(F)c(=O)[nH]c1=O ? 0 (no)

What classification did C1C[C@@H]2[C@H]3CC[C@H](C3)[C@@H]2C1 end up with in this test? 0 (no)

Which result was noted for this compound in the test: CC1(CN2CCC(n3c(=O)[nH]c4ccccc43)CC2)OCc2ccccc2-n2cccc21 (stereo not drawn) 0 (no)

Entry Brc1cc(Br)c(Oc2cc(Br)c(Br)cc2Br)cc1Br : call = ? 0 (no)

What call does the record list for c1ccc2sc(SN(C3CCCCC3)C3CCCCC3)nc2c1 ? 0 (no)

Next:
Name the outcome recorded for CO/N=C(/C(=O)N[C@@H]1C(=O)N2C(C(=O)O)=C(COC(N)=O)CS[C@H]12)c1ccco1 in the assay. 0 (no)

Test call, this compound: CCC1CO1 (stereo not drawn) 0 (no)

* * *

Assay: qHTS assay to identify small molecule antagonists of the estrogen related receptor (ERR) signaling pathway from Tox21 library - cell viability counter screen (AID 1224834); further: nearly all actives have a fitted effect of over 30% in size
Conditions: ERR reporter cells viability, CellTiter-Fluor, 17.5 h; series mostly up to 92.4 µM
Inconclusive results are not listed. Active and inactive are the calls of the source. Calls come from the whole dose curve; as a rule, active = well fitted cell-killing curve with a large enough effect in the repeat runs; inconclusive = weak or mixed curves; inactive = flat fitted curve, though single readings scatter.
Hello, when you answer, please use one of the following outcomes: true (1) for active, false (0) for inactive

Outcome? CCC(=O)C1CC(C(C)C)CC=C1C (stereo unspecified) false (0)

Please let me know the test result on file for CCCCCCNC(=O)n1cc(F)c(=O)[nH]c1=O . false (0)

Short answer needed: outcome of this test for CC(=O)OCC[N+](C)(C)C ? false (0)

Others:
Outcome? CC1=C(Br)C(=O)C(Br)=C/C1=C(/c1ccccc1S(=O)(=O)O)c1cc(Br)c(O)c(Br)c1C true (1)

Dear all, I need the recorded test outcome for O=C1Cc2cc(Cl)ccc2N1 , thank you. false (0)

Tell me the assay call for COc1ccccc1Oc1c(NS(=O)(=O)c2ccc(C(C)(C)C)cc2)nc(-c2ncccn2)nc1OCCO please. false (0)

* * *

Test: qHTS assay to identify small molecule agonists of the TGF-beta/Smad signaling pathway - cell viability counter screen (AID 1346829); further: top concentration of the series differs between compounds; nearly all actives have a fitted effect of over 45% in size
Conditions: SBE-bla HEK293T viability, CellTiter-Glo luminescence, 5 h; series mostly up to 76.8 µM
Results filed as inconclusive are left out. The source made the active and inactive calls. Calls come from the whole dose curve; as a rule, active = well fitted cell-killing curve with a large enough effect in the repeat runs; inconclusive = weak or mixed curves, or effect the other way; inactive = flat fitted curve, though single readings scatter.
property-name: outcome

The following compounds have reported results that may help.
Bench note: what outcome did CCCC(=O)C(=O)O show? inactive

Request the reported outcome associated with O=C(O)CCC(=O)C(=O)O inactive

Any idea what its outcome is? The compound is CC1(CN2CCC(n3c(=O)[nH]c4ccccc43)CC2)OCc2ccccc2-n2cccc21 (configuration not stated) inactive

Recorded outcome for C[C@@H]1CC(=O)NN=C1c1ccc(NN=C(C#N)C#N)cc1 , please? inactive

Look at this compound and give its reported outcome. CCOC(=O)OC(C)OC(=O)[C@@H]1N2C(=O)[C@@H](NC(=O)[C@H](N)c3ccccc3)[C@H]2SC1(C)C (some centres not stated) inactive

Reported outcome, compound CC(=O)Nc1ccc(C)cc1C : ____ inactive

Any idea what outcome was measured for Oc1ccc(Cl)c2cccnc12 ? inactive

Using the record for CCOC(C)=O , report its outcome. inactive

Any idea what outcome was measured for C=C(C)C(=O)OCCCCCCCCCCCCC ? inactive

Requested field: outcome. Item: CCn1cc(C(=O)O)c(=O)c2cc(F)c(N3CCNCC3)cc21 inactive

More entries:
Tell me the measured outcome of CC(C)=CCC/C(C)=C/CC/C(C)=C/C(=O)OCC(=O)[C@@]1(O)CC[C@H]2[C@@H]3CCC4=CC(=O)C=C[C@]4(C)[C@H]3[C@@H](O)C[C@@]21C , please. inactive

Consider the compound shown here: CC(CCC(=O)O)C(=O)O (configuration not stated) What is its recorded outcome? inactive

Need outcome, item C=CC(=O)OCC1CC2CC1C1CCC(COC(=O)C=C)C21 (configuration not stated) inactive

For CC1(C)[C@H](C(=O)O)N2C(=O)C[C@H]2S1(=O)=O , what is its reported outcome? inactive

Report outcome for CN1CCCC(n2nc(Cc3ccc(Cl)cc3)c3ccccc3c2=O)CC1 (configuration not stated) please. inactive

Any idea what outcome was measured for Cc1cc(C)cc(N)c1 ? inactive

Requested field: outcome. Item: C(=C\c1ccccc1)/c1ccccc1 inactive
